Give measured inhibition at 0.1 µM for each item. Keep answers brief.
- ASSAY SYSTEM: recombinant human 17β-HSD1 (Homo sapiens)
- Construct: made in house; host or cells: Sd9 (Sf9) insect cells, baculovirus (Bac to Bac Expression System)
- Sequence (P14061 1-328): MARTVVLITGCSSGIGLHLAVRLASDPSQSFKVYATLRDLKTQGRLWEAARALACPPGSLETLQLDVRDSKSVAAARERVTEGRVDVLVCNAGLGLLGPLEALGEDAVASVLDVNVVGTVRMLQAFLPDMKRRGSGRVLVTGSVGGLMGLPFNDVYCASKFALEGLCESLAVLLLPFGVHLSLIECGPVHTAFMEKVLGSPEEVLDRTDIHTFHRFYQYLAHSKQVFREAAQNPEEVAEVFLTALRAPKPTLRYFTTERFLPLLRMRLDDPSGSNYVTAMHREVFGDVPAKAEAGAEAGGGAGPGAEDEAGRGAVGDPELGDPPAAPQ
- ASSAY METHOD TEXT: Inhibition of recombinant human 17β-HSD1 (estrone to estradiol conversion, HPLC/radioactivity)
- Format: biochemical
- EXPERIMENTAL CONDITIONS: compound 100 nM; 30 nM estrone, 1 mM NADPH, 30 min RT
One number for each entry, in %.

Observe how each entry below is paired with its result.
# MOLECULE, inhibition at 0.1 µM, %
records = [
    ("C[C@]12CCC3c4ccccc4CCC3C1[C@H](CCC(=O)Nc1cc(F)ccn1)c1c[nH]nc12 (stereo partly shown) [Compound 162]", 91),
    ("C[C@]12CCC3c4cccc(F)c4CCC3C1[C@H](CCC(=O)N1CCNC(=O)C1)c1c[nH]nc12 (stereo partly shown) [Compound 24]", 83),
    ("C[C@]12CCC3c4ccccc4CCC3C1[C@H](CCC(=O)N1CCOCC1)c1c[nH]nc12 (stereo partly shown) [Compound 249]", 59),
]

// sample COc1ccc(NC(=O)CC[C@@H]2c3c[nH]nc3[C@@]3(C)CCC4c5ccccc5CCC4C23)nn1 (stereo partly shown) [Compound 156] , its inhibition at 0.1 µM was 81
